target-under-test: YES1 90-152, P07947
Sequence (P07947 90-152): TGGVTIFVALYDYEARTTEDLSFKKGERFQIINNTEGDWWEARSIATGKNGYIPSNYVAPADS
measurement-kind: selected by phage display

# count of solved cases: 6
- binder: "TLTDLPLLPGVPMAGD [LRRC46, Q96FV0]"
  selected by phage display: "confidence 2 (active)"
- binder: "QPAVFPPSFRELPPPP [IFT52, Q9Y366]"
  selected by phage display: "confidence 4 (active)"
- binder: "PTPSSPLPSVPVSVPA [PLEKHN1, Q494U1]"
  selected by phage display: "confidence 3 (active)"
- binder: "NLEVKSLRALPATPAL [PDE4DIP, Q5VU43]"
  selected by phage display: "confidence 2 (active)"
- binder: "KDRPLPPAPLSPAPGP [MAP1A, P78559]"
  selected by phage display: "confidence 3 (active)"
- binder: "DKTSSIQSRPLPSPPK [BCAR1, P56945]"
  selected by phage display: "confidence 2 (active)"

Requested field: selected by phage display. Item: TVELEEKRFRTLPLVP [ELL3, Q9HB65]
confidence 3 (active)

Entry to check: PLPPPPPLPKIQPLEP [ZBTB21, Q9ULJ3]
confidence 2 (active)

Likewise for QPLPPAPTSVPPAAFP [PER1, O15534] ?
confidence 2 (active)

Also, LPSLPLEPSLLSGVVQ [LRP10, Q7Z4F1] please.
confidence 2 (active)

Do the same for NQQKALPPPPASIPPP [FMN1, Q68DA7] please
confidence 2 (active)
